# test: Solubility in the PBS buffer at 1 mg/mL; Good solubility
# Assay type: physicochemical
Positions of bridges follow the written chain, without caps; N, C: chain ends. Residues, ends and D or L forms follow the SMILES beside them.
reported-endpoint: S

1. CSCC[C@H](NC(=O)[C@@H](Cc1ccc(O)cc1)NC(=O)[C@@H]1CSSC[C@H](NC(=O)[C@H](N)Cc2ccccc2)C(=O)N[C@@H](CC(=O)O)C(=O)NCC(=O)N[C@@H](Cc2ccccc2)C(=O)N[C@@H](Cc2ccc(O)cc2)C(=O)N[C@@H](C)C(=O)N1)C(=O)N[C@@H](CC(=O)O)C(=O)N[C@H](C(N)=O)C(C)C : Soluble
2. CC(C)[C@H](NC(=O)[C@H](CC(=O)O)NC(=O)[C@H](CCCCN)NC(=O)[C@H](Cc1ccc(O)cc1)NC(=O)[C@@H]1CSSC[C@H](NC(=O)[C@@H](N)Cc2ccccc2)C(=O)N[C@@H](CC(=O)O)C(=O)NCC(=O)N[C@@H](Cc2ccccc2)C(=O)N[C@@H](Cc2ccc(O)cc2)C(=O)N[C@@H](C)C(=O)N1)C(=O)O (H-FCDGFYACYKDV-OH; disulfide 2-8) : Soluble
3. CSCC[C@H](NC(=O)[C@H](Cc1ccc(O)cc1)NC(=O)[C@@H]1CSSC[C@H](NC(=O)[C@H](Cc2ccccc2)NC(=O)CN)C(=O)N[C@@H](CC(=O)O)C(=O)NCC(=O)N[C@@H](Cc2ccccc2)C(=O)N[C@@H](Cc2ccc(O)cc2)C(=O)N[C@@H](C)C(=O)N1)C(=O)N[C@@H](CC(=O)O)C(=O)N[C@H](C(=O)O)C(C)C (H-GFCDGFYACYMDV-OH; disulfide 3-9) : Soluble
